molecular target: recombinant Mcl-1 (Homo sapiens, UniProt Q07820); test: isothermal titration microcalorimetry (ITC) with purified recombinant Mcl-1; settings: purified recombinant Mcl-1
Sequence (Q07820 whole entry): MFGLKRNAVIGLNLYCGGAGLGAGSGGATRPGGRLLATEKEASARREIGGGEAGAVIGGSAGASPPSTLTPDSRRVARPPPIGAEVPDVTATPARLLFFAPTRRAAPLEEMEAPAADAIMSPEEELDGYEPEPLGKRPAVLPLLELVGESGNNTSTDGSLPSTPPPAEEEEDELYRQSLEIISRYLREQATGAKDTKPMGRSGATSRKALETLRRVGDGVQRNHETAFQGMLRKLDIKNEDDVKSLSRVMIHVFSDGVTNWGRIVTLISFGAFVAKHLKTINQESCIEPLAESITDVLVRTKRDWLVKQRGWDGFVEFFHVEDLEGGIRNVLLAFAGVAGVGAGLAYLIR
parameter: Kd (nM)
Field format: number, assumed nM, no unit text.

Q: For the compound COc1cc(-c2c(Cl)ccn2S(=O)(=O)c2ccc(C)cc2)oc1-c1nnn[nH]1 , what Kd is on record?
Ans: 700
